Reference source for all entries: PubChem BioAssay (NCI)

- Tested on: OVCAR-4 ovarian
- test-name: NCI-60 one-dose screen, 48 h (100 = growth as untreated, 0 = no growth, -100 = all killed)
- assay-conditions: 10 µM
Compounds without any hit were thinned out: in the full panel of roughly 83,000, 20% have a hit.
Measured growth, listed per entry for reference.

>  <compound>
CCOC(=O)c1nn(C2CCCCO2)c2ccc(NC(=O)Cn3nnc4ccccc43)cc12 (centres undefined)

>  <growth / %>
104

$$$$
>  <compound>
O=C1CC(C(F)(F)F)Cc2nc3ccc(Br)cc3cc21 (centres undefined)

>  <growth / %>
74.6

$$$$
>  <compound>
Cc1ccc(S(=O)(=O)NCCCNc2nccc(-c3c(-c4cccc(F)c4)nc4occn34)n2)cc1

>  <growth / %>
73.4

$$$$
>  <compound>
CNC(=O)c1cc(Oc2cccc3nc(NC(=O)Nc4cc(C(F)(F)F)cc(C(F)(F)F)c4)ccc23)ccn1

>  <growth / %>
-38.2

$$$$
>  <compound>
COc1ccc(/C=C2\N=C(Nc3ccccc3)N(NC(=O)c3ccccn3)C2=O)cc1

>  <growth / %>
90

$$$$
>  <compound>
CC[C@@H]1NC(=O)[C@@H]2CCCCN2C(=O)[C@@H]2CCCN2C(=O)[C@@H](NC(=O)[C@H](Cc2cc(F)cc(F)c2)NC(=O)Nc2ccc(C3CC3)cc2F)[C@H](C)OC(=O)[C@@H]2C[C@@H](C)CN2C1=O

>  <growth / %>
7.84

$$$$
>  <compound>
CCOC(=O)C1=C(C(=O)c2ccc(Br)cc2)C(c2ccc(Br)cc2)NC(=S)N1 (centres undefined)

>  <growth / %>
107

$$$$
>  <compound>
O=C(Oc1ccc(Cl)cc1[N+](=O)[O-])Oc1ccc(Cl)cc1[N+](=O)[O-]

>  <growth / %>
119

$$$$
>  <compound>
O=C(NCc1ccccc1)C(Cl)Cl

>  <growth / %>
102

$$$$
>  <compound>
O=C(Nc1cccc(C2=NCCN2)c1)c1cccc(C(=O)Nc2cccc(C3=NCCN3)c2)c1

>  <growth / %>
94.7

$$$$
>  <compound>
O=C(O)CC1CCCCC1c1ccccc1 (centres undefined)

>  <growth / %>
109

$$$$
>  <compound>
Nc1cc(N)c(N=Nc2ccc(S(=O)(=O)O)cc2)cc1N=Nc1ccc(-c2ccc(N=Nc3ccc(O)c(C(=O)O)c3)cc2)cc1

>  <growth / %>
103

$$$$
>  <compound>
Brc1ccc(-c2nnc3c4[nH]ccc4ncn23)cc1

>  <growth / %>
91.1

$$$$
>  <compound>
Nc1cccc2c1C(=O)c1cccc(NC(=O)c3ccccc3)c1C2=O

>  <growth / %>
53

$$$$
>  <compound>
CCOC(=O)c1nn(C2CCCCO2)c2ccc(NC(=O)CN3CCCC3)cc12 (centres undefined)

>  <growth / %>
99.4

$$$$
>  <compound>
C=CC1=C(C)C2=NC1=CC1=NC(=CC3=C(C)C4=C(O)C(C(=O)O)C(=C5NC(=C2)C(C)C5CCC(=O)O)C4=N3)C(CC)=C1C (centres undefined)

>  <growth / %>
103

$$$$
>  <compound>
COc1ccc(CC(C#N)c2ccc(Cl)cc2)cc1 (centres undefined)

>  <growth / %>
103

$$$$
>  <compound>
CC(C)OC(=O)Nc1cc(F)ccc1F

>  <growth / %>
106

$$$$
>  <compound>
NC(=O)c1c(NC(=O)COC(=O)Cc2ccccc2F)sc2c1CCC2

>  <growth / %>
114

$$$$
>  <compound>
Nc1cc(NN=C(c2ccc(O)cc2)c2ccc(O)cc2)c([N+](=O)[O-])cc1[N+](=O)[O-]

>  <growth / %>
76.1

$$$$
>  <compound>
CC(C)(C)OC(=O)N1C=C/C(=C\Cn2cc(-c3ccccc3)nn2)CC1

>  <growth / %>
18

$$$$
>  <compound>
COc1ccc(-c2ccc(NNC(=O)c3ccc(F)cc3)nn2)cc1OC

>  <growth / %>
81.8

$$$$
>  <compound>
Fc1cc2[nH]ncc2c2c3c(c(-c4cn[nH]c4C(F)(F)F)nc12)C1CCC3C1 (centres undefined)

>  <growth / %>
35

$$$$
>  <compound>
CCOC(=O)C(c1ccccc1)N1C(=O)c2ccccc2C1=O (centres undefined)

>  <growth / %>
97.7

$$$$
>  <compound>
CC1(C)C(=NO)C(C)(C)C1=NO

>  <growth / %>
115

$$$$
>  <compound>
O=C(CSc1nccc(Nc2ccc(S(=O)(=O)Nc3ccccn3)cc2)n1)c1ccc(Cl)cc1

>  <growth / %>
80.2

$$$$
>  <compound>
O=C(N/N=C1\c2ccccc2-c2cccc(C(=O)O)c21)c1ccc(O)cc1

>  <growth / %>
101

$$$$
>  <compound>
CCOC(=O)CC(c1ccccc1)C(C#N)c1ccccc1 (centres undefined)

>  <growth / %>
98.7

$$$$
>  <compound>
CCCc1cc2cc(-n3nc(C)c4c3CC(C)(C)CC4=O)cc(NC3CCSCC3)c2c(=O)[nH]1

>  <growth / %>
97.5

$$$$
>  <compound>
CCOC(=O)c1sc2nc(-c3cc(OC)c(OC)c(OC)c3)nc(N3CCOCC3)c2c1C

>  <growth / %>
19.7

$$$$
>  <compound>
OC(c1ccc(Cl)cc1)(c1ccc(Cl)cc1)C(O)(c1ccc(Cl)cc1)c1ccc(Cl)cc1

>  <growth / %>
44.8

$$$$
>  <compound>
C#C[C@]1(O)CC[C@H]2[C@@H]3CC=C4c5nc(Nc6ccc(OC)cc6OC)sc5CC[C@]4(C)[C@H]3CC[C@@]21C

>  <growth / %>
44.7

$$$$
>  <compound>
Cc1ccc(-c2cc(O)c(-c3ccc(C)cc3C)cc2O)c(C)c1

>  <growth / %>
41.2

$$$$
>  <compound>
CCOc1cccc2c(NC(C)CCCN(CC)CC)c(C)cnc12 (centres undefined)

>  <growth / %>
108

$$$$
>  <compound>
Nc1ccc(NC(=O)c2ccccc2)c2c1C(=O)c1ccccc1C2=O

>  <growth / %>
103

$$$$
>  <compound>
c1ccc2c(c1)CN(CCCN1CCOCC1)C2

>  <growth / %>
102

$$$$
>  <compound>
CCOC(=O)c1nn(C2CCCCO2)c2ccc(NS(=O)(=O)c3ccc(C)cc3)cc12 (centres undefined)

>  <growth / %>
87.2

$$$$
>  <compound>
COc1cc(OC)cc(C(=O)Nc2cc(-c3cccnc3)nc(NCCCN3CCOCC3)n2)c1

>  <growth / %>
117

$$$$
>  <compound>
C[C@@H](NC(=O)[C@@H](CC(=O)N1CCC(N2CCCCC2)CC1)N1C(=O)[C@@H](N2C(=O)OC[C@@H]2c2ccccc2)[C@H]1/C=C/c1cccc(Cl)c1)c1ccccc1

>  <growth / %>
78.6

$$$$
